Target: GPx4 embedded in a mmRM (membrane-bound GPx4) (Homo sapiens, UniProt P36969, U73G)
Construct: Truncated U46G-GPx4 with a TEV cleavable poly-histidine tag was inserted into vector; poly-histidine tag with TEV cleavage site; host or cells: BL21 (DE3) E. coli
Sequence (P36969 1-170 isoform P36969-2 U46G): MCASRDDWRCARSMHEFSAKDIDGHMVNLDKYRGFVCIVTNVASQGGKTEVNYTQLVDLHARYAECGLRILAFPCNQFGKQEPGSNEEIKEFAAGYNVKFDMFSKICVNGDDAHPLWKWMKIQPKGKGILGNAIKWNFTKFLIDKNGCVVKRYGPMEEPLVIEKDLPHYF
Experiment: NMR (15N-HSQC) titration of fragments against GPx4 embedded in DLPC/DPC mmRM, apparent Kd
Type: binding
Conditions: Table 1; GPx4 in DLPC/DPC mmRM, NMR titration up to 400 μM or 1 mM; ± standard error of global Kd fit; read-out: Kd (apparent)
metric: pKd
Scale: negative log10 of molar concentration, which is what pKd denotes.

CCOC(=O)c1ccc(Cl)nn1 [Fragment 9] :: 3.08
NCCS(=O)(=O)c1ccccc1 [Fragment 3] :: 3.85

Kindly review the next compound as well.
Consider the compound COCC(=O)N1CCOc2ccccc2C1 [Fragment 4] and give its measured pKd. 3.85
